# pKi per entry for UniProt P00742
# Sequence (P00742 41-179 limits assumed): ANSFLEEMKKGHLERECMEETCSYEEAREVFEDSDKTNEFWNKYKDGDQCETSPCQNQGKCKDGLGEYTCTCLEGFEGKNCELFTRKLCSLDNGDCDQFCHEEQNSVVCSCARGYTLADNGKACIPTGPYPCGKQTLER
# Sequence (P00742 235-488 limits assumed): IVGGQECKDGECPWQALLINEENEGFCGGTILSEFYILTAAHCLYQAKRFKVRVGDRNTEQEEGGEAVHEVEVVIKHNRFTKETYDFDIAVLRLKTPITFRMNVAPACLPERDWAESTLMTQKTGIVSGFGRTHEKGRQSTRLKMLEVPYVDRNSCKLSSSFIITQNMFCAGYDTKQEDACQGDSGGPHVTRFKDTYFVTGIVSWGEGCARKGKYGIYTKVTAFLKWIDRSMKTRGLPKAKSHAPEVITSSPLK
pKi: −log10 of the molar value.

{"compoundStructure": "O=C1CN(S(=O)(=O)c2cc3ccc(Cl)cc3s2)CCN1Cc1cc2c(=O)[nH]ccc2[nH]1", "pKi": "< 5.92"}
{"compoundStructure": "O=C1CN(S(=O)(=O)c2cc3ccc(Cl)cc3s2)CCN1Cc1cc2ncccc2[nH]1", "pKi": "< 5.92"}
{"compoundStructure": "O=C1CN(S(=O)(=O)c2cc3cccnc3s2)CCN1Cc1cc2cnccc2[nH]1", "pKi": "< 5.92"}
{"compoundStructure": "O=C1CN(S(=O)(=O)c2cc3ccc(Cl)cc3s2)CCN1Cc1nc2ccncc2[nH]1", "pKi": "< 5.92"}
{"compoundStructure": "O=C1CN(S(=O)(=O)c2sc3ccccc3c2Cl)CCN1Cc1cc2cnccc2[nH]1", "pKi": "< 5.92"}
